# TEST TARGET: GalNAc(a1-3)GalNAc(b1-3)Gal(a1-4)Gal(b1-4)GlcNAc
# ASSAY INFO: glycan array binding signal (z-score within array); higher = stronger binding
# MEASUREMENT PARAMETERS: glycan notation: IUPAC condensed, linker removed
Shown is part of a subset that was picked to be rich in the strongest signals.
MEASUREMENT TYPE: glycan array binding signal (z-score)
Give bare numbers.

Example binders with recorded glycan array binding signal (z-score):
INSERT INTO assay_data (binder, recorded_result) VALUES
  ('UDA (Urtica dioica), P11218 (protein) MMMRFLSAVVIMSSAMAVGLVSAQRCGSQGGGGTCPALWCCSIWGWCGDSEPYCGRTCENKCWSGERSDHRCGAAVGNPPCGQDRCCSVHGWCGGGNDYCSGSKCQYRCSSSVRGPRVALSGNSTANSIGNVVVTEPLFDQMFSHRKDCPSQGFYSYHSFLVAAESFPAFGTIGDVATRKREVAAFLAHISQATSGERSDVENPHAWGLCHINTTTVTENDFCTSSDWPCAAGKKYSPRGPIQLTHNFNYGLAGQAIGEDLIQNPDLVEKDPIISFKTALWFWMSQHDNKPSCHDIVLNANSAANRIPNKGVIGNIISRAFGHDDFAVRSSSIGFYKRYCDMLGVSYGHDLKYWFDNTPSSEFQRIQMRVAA', -0.177),
  ('DCIR1 (Mus musculus), Q9QZ15 (protein) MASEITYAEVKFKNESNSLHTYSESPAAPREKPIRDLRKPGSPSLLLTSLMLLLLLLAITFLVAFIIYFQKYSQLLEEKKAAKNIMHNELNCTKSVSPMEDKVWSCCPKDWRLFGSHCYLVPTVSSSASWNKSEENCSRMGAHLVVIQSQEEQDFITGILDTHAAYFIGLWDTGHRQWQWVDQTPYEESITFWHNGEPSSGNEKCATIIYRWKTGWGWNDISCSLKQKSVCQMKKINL', 2.31),
  ('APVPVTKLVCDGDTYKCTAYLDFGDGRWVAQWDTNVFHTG [PhoSpL (Pholiota squarrosa)]', 0.539);

Now for another entry.
Q: Dear colleague, please send me the reported glycan array binding signal (z-score) for SJA (Sophora japonica) (protein) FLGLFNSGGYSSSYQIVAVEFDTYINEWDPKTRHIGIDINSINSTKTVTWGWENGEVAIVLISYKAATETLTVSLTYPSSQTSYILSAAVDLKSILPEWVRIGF when you can.
Result: -0.341
